// data source = the supplement of paper PMC10567573

Recorded protein stability index values for a group of variants are listed next.
B1: ZNF649 (parent)
chain: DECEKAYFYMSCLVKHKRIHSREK

# Variants of: B1
# Procedure Details: protein stability index of a GFP-peptide fusion (GPS, HEK-293T) (PSI 1-6); higher = more stable;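 note: lentivirally expressed fusions sorted by FACS into six bins by GFP to DsRed ratio, PSI derived from sequencing read proportions per bin multiplied by bin number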
# Stated Conditions: c terminus: a fixed tail appended

Sequence Entry: DECEKAYFYMSCLVKHKGIHSREK [R18G]
protein stability index: 2.72
--
Sequence Entry: DECEKAQFYMSCLVKHKRIHSREK [Y7Q]
protein stability index: 3.99
--
Sequence Entry: DECEKAYFYMSCSVKHKRIHSREK [L13S]
protein stability index: 2.79
--
Sequence Entry: DEGEKAYFYMSCLVKHKRIHSREK [C3G]
protein stability index: 2.92
--
Sequence Entry: DECEKAYIYMSCLVKHKRIHSREK [F8I]
protein stability index: 2.67
--
Sequence Entry: DECEKAYFYMSCLVKHKRIHSHEK [R22H]
protein stability index: 2.39
--
Sequence Entry: DECEKAYFYMSCLVKFKRIHSREK [H16F]
protein stability index: 1.79
--
Sequence Entry: DECEKAYFYMSCVVKHKRIHSREK [L13V]
protein stability index: 2.98
--
Sequence Entry: DECEKAYFYQSCLVKHKRIHSREK [M10Q]
protein stability index: 4.12
--
Sequence Entry: DECEKATFYMSCLVKHKRIHSREK [Y7T]
protein stability index: 3
--
Sequence Entry: DECEKAYFYMSCLVKHKRIHSRAK [E23A]
protein stability index: 3.48
--
Sequence Entry: DECEKAYFYMSCLRKHKRIHSREK [V14R]
protein stability index: 3.12
--
Sequence Entry: DEDEKAYFYMSCLVKHKRIHSREK [C3D]
protein stability index: 2.98
--
Sequence Entry: DECEKAYFYMSCLVKHLRIHSREK [K17L]
protein stability index: 1.91
--
Sequence Entry: DICEKAYFYMSCLVKHKRIHSREK [E2I]
protein stability index: 1.71
--
Sequence Entry: DECEKAYFYMSLLVKHKRIHSREK [C12L]
protein stability index: 2.23
--
Sequence Entry: DECEKAYFYMSCLVKHKRITSREK [H20T]
protein stability index: 2.12
--
Sequence Entry: DECEKAYFYMSCGVKHKRIHSREK [L13G]
protein stability index: 3.24
--
Sequence Entry: DECEKAYFRMSCLVKHKRIHSREK [Y9R]
protein stability index: 3.9
--
Sequence Entry: DECEKAYVYMSCLVKHKRIHSREK [F8V]
protein stability index: 3.23
--
Sequence Entry: DECEKAYFYMSCLVKHKRIHSRTK [E23T]
protein stability index: 2.48
--
Sequence Entry: DECEKMYFYMSCLVKHKRIHSREK [A6M]
protein stability index: 1.9
--
Sequence Entry: DECEKAYFYMVCLVKHKRIHSREK [S11V]
protein stability index: 1.87
--
Sequence Entry: DECEKAYFYMSCLVKHKRIHSREI [K24I]
protein stability index: 2.12
--
Sequence Entry: DECEKAYFYMSCLVKSKRIHSREK [H16S]
protein stability index: 3.06
--
Sequence Entry: DTCEKAYFYMSCLVKHKRIHSREK [E2T]
protein stability index: 3.17
--
Sequence Entry: DECEKAYFYMSCLVFHKRIHSREK [K15F]
protein stability index: 1.87
--
Sequence Entry: DECEKAYFYMPCLVKHKRIHSREK [S11P]
protein stability index: 3.24
--
Sequence Entry: DECEKAYFYMSCLVKHKRTHSREK [I19T]
protein stability index: 2.98
--
Sequence Entry: DECEKAYFYMSCLVKHKREHSREK [I19E]
protein stability index: 3.93
--
Sequence Entry: DECEYAYFYMSCLVKHKRIHSREK [K5Y]
protein stability index: 1.82
--
Sequence Entry: DECEKAYFYMSCLVEHKRIHSREK [K15E]
protein stability index: 2.54
--
Sequence Entry: DECHKAYFYMSCLVKHKRIHSREK [E4H]
protein stability index: 2.26
--
Sequence Entry: DECEKAYFYWSCLVKHKRIHSREK [M10W]
protein stability index: 2.36
--
Sequence Entry: DEAEKAYFYMSCLVKHKRIHSREK [C3A]
protein stability index: 3.06
--
Sequence Entry: DECEKAYFYMSCLVKHKRIHSIEK [R22I]
protein stability index: 2.24
--
Sequence Entry: DECEKAYFYMYCLVKHKRIHSREK [S11Y]
protein stability index: 2.68
--
Sequence Entry: DECEKAYFYMSCLVKHKKIHSREK [R18K]
protein stability index: 2.79
--
Sequence Entry: DECEKAYFYMSCLVKHKRWHSREK [I19W]
protein stability index: 2.81
--
Sequence Entry: DECEKAYFYMSCLVKHKRIHYREK [S21Y]
protein stability index: 1.87
--
Sequence Entry: DECEKAYFYMSCRVKHKRIHSREK [L13R]
protein stability index: 2.15
--
Sequence Entry: DECEDAYFYMSCLVKHKRIHSREK [K5D]
protein stability index: 3.36
--
Sequence Entry: DECEKAYFYMSCLVKHKRIHSREQ [K24Q]
protein stability index: 2.56
--
Sequence Entry: DECEKAYFYMSCLIKHKRIHSREK [V14I]
protein stability index: 2.11
--
Sequence Entry: DECEKAYFYMSCLVKHKRIFSREK [H20F]
protein stability index: 2.88
--
Sequence Entry: DECEKAYFYMSCLVKHKRIHSREY [K24Y]
protein stability index: 2.05
--
Sequence Entry: DQCEKAYFYMSCLVKHKRIHSREK [E2Q]
protein stability index: 2.49
--
Sequence Entry: DECEKAEFYMSCLVKHKRIHSREK [Y7E]
protein stability index: 3.7
--
Sequence Entry: HECEKAYFYMSCLVKHKRIHSREK [D1H]
protein stability index: 2.61
--
Sequence Entry: DECEKAYFYKSCLVKHKRIHSREK [M10K]
protein stability index: 3.74
--
Sequence Entry: DECEKAYFYMSFLVKHKRIHSREK [C12F]
protein stability index: 2.69
--
Sequence Entry: DECEKAYFPMSCLVKHKRIHSREK [Y9P]
protein stability index: 3.78
--
Sequence Entry: DECETAYFYMSCLVKHKRIHSREK [K5T]
protein stability index: 2.64
--
Sequence Entry: DECEKAYYYMSCLVKHKRIHSREK [F8Y]
protein stability index: 2.65
--
Sequence Entry: DECEKAYAYMSCLVKHKRIHSREK [F8A]
protein stability index: 3.44
--
Sequence Entry: DEWEKAYFYMSCLVKHKRIHSREK [C3W]
protein stability index: 1.97
--
Sequence Entry: DECEKAYFYMSCLVKHIRIHSREK [K17I]
protein stability index: 1.68
--
Sequence Entry: DECEKAYFYMSCLVKNKRIHSREK [H16N]
protein stability index: 2.75
--
Sequence Entry: DECEKAYFYMSCLVKHKRIHSRMK [E23M]
protein stability index: 1.8
--
Sequence Entry: DECEKAYFYMSCLVKHKRIHSRFK [E23F]
protein stability index: 2.15
--
Sequence Entry: DMCEKAYFYMSCLVKHKRIHSREK [E2M]
protein stability index: 1.41
--
Sequence Entry: PECEKAYFYMSCLVKHKRIHSREK [D1P]
protein stability index: 2.44
--
Sequence Entry: DECEKAYFYMSCLVKHKRIHSSEK [R22S]
protein stability index: 2.08
--
Sequence Entry: DVCEKAYFYMSCLVKHKRIHSREK [E2V]
protein stability index: 1.57
--
Sequence Entry: DECEKAYFYMRCLVKHKRIHSREK [S11R]
protein stability index: 2.47
--
Sequence Entry: DECEKAYFYMCCLVKHKRIHSREK [S11C]
protein stability index: 2.13
--
Sequence Entry: CECEKAYFYMSCLVKHKRIHSREK [D1C]
protein stability index: 1.98
--
Sequence Entry: DECEKAYFYMSCLVKHKRIHSTEK [R22T]
protein stability index: 2.38
--
Sequence Entry: DHCEKAYFYMSCLVKHKRIHSREK [E2H]
protein stability index: 2.03
--
Sequence Entry: DECEKAYFYMSALVKHKRIHSREK [C12A]
protein stability index: 2.83
--
Sequence Entry: DECEKAYFYMSCLGKHKRIHSREK [V14G]
protein stability index: 2.9
--
Sequence Entry: DECEKAYFYMSCLWKHKRIHSREK [V14W]
protein stability index: 1.64
--
Sequence Entry: DECEKAYFYMSCLVPHKRIHSREK [K15P]
protein stability index: 2.02
--
Sequence Entry: DECEKAYFYMTCLVKHKRIHSREK [S11T]
protein stability index: 2.94
--
Sequence Entry: DECEKAYFYMSCPVKHKRIHSREK [L13P]
protein stability index: 3.1
--
Sequence Entry: DECEKAYFYMSCLLKHKRIHSREK [V14L]
protein stability index: 2.63
--
Sequence Entry: DECEKAYFYTSCLVKHKRIHSREK [M10T]
protein stability index: 3.19
--
Sequence Entry: DECEKAYFYMSCLVKHKRKHSREK [I19K]
protein stability index: 2.9
--
Sequence Entry: DECEKAYFYASCLVKHKRIHSREK [M10A]
protein stability index: 3.61
--
Sequence Entry: FECEKAYFYMSCLVKHKRIHSREK [D1F]
protein stability index: 1.98
--
Sequence Entry: DECEKAYFDMSCLVKHKRIHSREK [Y9D]
protein stability index: 4.51
--
Sequence Entry: DECEKPYFYMSCLVKHKRIHSREK [A6P]
protein stability index: 2.79
--
Sequence Entry: DECEKAYFYMSCLVKHKAIHSREK [R18A]
protein stability index: 2.53
--
Sequence Entry: DECEKAYFYMSELVKHKRIHSREK [C12E]
protein stability index: 3.54
--
Sequence Entry: DECEKAYFYMSCHVKHKRIHSREK [L13H]
protein stability index: 2.95
--
Sequence Entry: DECEKAYFYMGCLVKHKRIHSREK [S11G]
protein stability index: 3.21
--
Sequence Entry: DECEKAYFYMSCLVKHKRIHSDEK [R22D]
protein stability index: 2.8
--
Sequence Entry: DECEKAYFYMSCLVKHKRIHSRSK [E23S]
protein stability index: 2.23
--
Sequence Entry: DECEKAYFYMDCLVKHKRIHSREK [S11D]
protein stability index: 3.55
--
Sequence Entry: DECEKAYFYMSCLVKHKRFHSREK [I19F]
protein stability index: 2.53
--
Sequence Entry: DECEKAYFYMSCLAKHKRIHSREK [V14A]
protein stability index: 2.88
